For each record, write down the corresponding TOTAL PROTEIN.
Species: Rattus norvegicus
Assay: DrugMatrix - Regimen: Daily Repeat
Type: toxicity, organism-based, Sprague-Dawley
Design: regimen Daily Repeat, gender Male, age 6-8 weeks
Conditions: in vivo, po, 10 mg/kg, 72 h, tissue Plasma, route oral GAVAGE, dose level Low, time 3 day, vehicle .5 % CMC
Remember to follow the number with its unit.

Check out these entries, answers already filled in.
CC(=O)O[C@]1(C(C)=O)CC[C@H]2[C@@H]3C=C(Cl)C4=CC(=O)CC[C@]4(C)[C@H]3CC[C@@]21C [CHLORMADINONE ACETATE] = 6.37 G/DL
O=C1CN=C(c2ccccc2)c2cc([N+](=O)[O-])ccc2N1 [NITRAZEPAM] = 5.43 G/DL
COc1c(C)c2c(c(O)c1C/C=C(\C)CCC(=O)OCCN1CCOCC1)C(=O)OC2 [MYCOPHENOLATE MOFETIL] = 5.53 G/DL

Consider the compound NS(=O)(=O)c1cc2c(cc1Cl)NCNS2(=O)=O [HYDROCHLOROTHIAZIDE] and give its recorded TOTAL PROTEIN. 5.87 G/DL

----------
Species: Rattus norvegicus
Test: DrugMatrix - Regimen: Daily Repeat
Type: toxicity, organism-based, Sprague-Dawley
Design: regimen Daily Repeat, gender Male, age 6-8 weeks
Conditions: in vivo, po, 0 mg/kg, 72 h, tissue Plasma, route oral GAVAGE, dose level Control, time 3 day, vehicle .5 % CMC
Decision: CHLORIDE compared against 100 MEQ/L; not below it gives 1, below it gives -1.

Study these solved cases before continuing.
C=C1CC[C@H](O)C/C1=C/C=C1\CCC[C@]2(C)[C@@H]([C@H](C)/C=C/[C@H](C)C(C)C)CC[C@@H]12 [ERGOCALCIFEROL] = -1
CC[C@H]1OC(=O)[C@H](C)[C@@H](O[C@H]2C[C@@](C)(OC)[C@@H](O)[C@H](C)O2)[C@H](C)[C@@H](O[C@@H]2O[C@H](C)C[C@H](N(C)C)[C@H]2O)[C@](C)(O)C[C@@H](C)/C(=N\OCOCCOC)[C@H](C)[C@@H](O)[C@]1(C)O [ROXITHROMYCIN] = 1
C[C@]12CCC(=O)C=C1CC[C@@H]1[C@@H]2C(=O)C[C@@]2(C)[C@H]1CC[C@]2(O)C(=O)CO [CORTISONE] = 1
O=C1CCc2cc(OCCCCc3nnnn3C3CCCCC3)ccc2N1 [CILOSTAZOL] = -1
CCc1cccc2c3c([nH]c12)C(CC)(CC(=O)O)OCC3 (centres undefined) [ETODOLAC] = 1

Pending compound:
Does the reported CHLORIDE for CN1C(C(=O)Nc2ccccn2)=C(O)c2ccccc2S1(=O)=O [PIROXICAM] fall at or above the 100 MEQ/L mark? 1

----------
Species: Rattus norvegicus
Assay: DrugMatrix - Regimen: Daily Repeat
Assay type: toxicity, organism-based, Sprague-Dawley
Parameters: regimen Daily Repeat, gender Male, age 6-8 weeks
Conditions: in vivo, po, 0 mg/kg, 120 h, tissue Blood, route oral GAVAGE, dose level Control, time 5 day, […]
For each record, write down the corresponding HEMOGLOBIN.
Answers are plain numbers, in G/DL.

C=CCN [ALLYLAMINE] = 14.3

Go through the list and state HEMOGLOBIN for each entry.
1. CCCC[C@@H](CC)COC(=O)c1ccccc1C(=O)OC[C@@H](CC)CCCC [BIS(2-ETHYLHEXYL)PHTHALATE]
2. CN(C)CCCC1(c2ccc(F)cc2)OCc2cc(C#N)ccc21 (stereo not given) [CITALOPRAM]
3. Oc1c(Cl)cc(Cl)cc1Sc1cc(Cl)cc(Cl)c1O [BITHIONOL]
4. c1ccc2[nH]c(-c3cscn3)nc2c1 [THIABENDAZOLE]

1. 13.38
2. 13.5
3. 13.48
4. 13.38

----------
Organism: Rattus norvegicus
Test: DrugMatrix - Regimen: Daily Repeat
Format: toxicity, organism-based, Sprague-Dawley
Design: regimen Daily Repeat, gender Male, age 6-8 weeks
Settings: in vivo, ip, 0 mg/kg, […], tissue Blood, route intraperitoneal, dose level Control, time 14 day, vehicle 100 % SALINE
Metric name: ABSOLUTE LYMPHOCYTE (cells/µL)
Answers are plain numbers, in cells/µL.

Consider the compound `NCC[C@H](O)C(=O)N[C@@H]1C[C@H](N)[C@@H](O[C@H]2O[C@H](CN)[C@@H](O)[C@H](O)[C@H]2O)[C@H](O)[C@H]1O[C@H]1O[C@H](CO)[C@@H](O)[C@H](N)[C@H]1O` and give its recorded ABSOLUTE LYMPHOCYTE. 13500

----------
For each record, write down the corresponding PLATELET COUNT.
Organism: Rattus norvegicus
Assay: DrugMatrix - Regimen: Daily Repeat
Type: toxicity, organism-based, Sprague-Dawley
Design: regimen Daily Repeat, gender Male, age 6-8 weeks
Details: in vivo, po, 2000 mg/kg, 72 h, tissue Blood, route oral GAVAGE, dose level High, time 3 day, vehicle .5 % CMC
Answers are plain numbers, in x10E3/uL.

Check out these entries, answers already filled in.
CC(=O)O[C@]1(C(C)=O)CC[C@H]2[C@@H]3C=C(Cl)C4=CC(=O)CC[C@]4(C)[C@H]3CC[C@@]21C [CHLORMADINONE ACETATE] = 1192
NCCCC[C@H](N[C@@H](CCc1ccccc1)C(=O)O)C(=O)N1CCC[C@H]1C(=O)O [LISINOPRIL ANHYDROUS] = 1324.33

Go through the list and state PLATELET COUNT for each entry.
1. CC(C)[C@H](N)C(=O)OCCOCn1cnc2c(=O)[nH]c(N)nc21 [VALACYCLOVIR]
2. NCC(=O)O [GLYCINE]

1: 1175; 2: 1124.67

----------
Organism: Rattus norvegicus
Assay: DrugMatrix - Regimen: Daily Repeat
Assay type: toxicity, organism-based, Sprague-Dawley
Design: regimen Daily Repeat, gender Male, age 6-8 weeks
Conditions: in vivo, iv, 0 mg/kg, 120 h, tissue Blood, dose level Control, time 5 day, vehicle 100 % SALINE
Metric name: PLATELET COUNT

CN(N=O)C(=O)N[C@@H](C=O)[C@@H](O)[C@H](O)[C@H](O)CO = 1266 x10E3/uL
NCC[C@H](O)C(=O)N[C@@H]1C[C@H](N)[C@@H](O[C@H]2O[C@H](CN)[C@@H](O)[C@H](O)[C@H]2O)[C@H](O)[C@H]1O[C@H]1O[C@H](CO)[C@@H](O)[C@H](N)[C@H]1O = 924.33 x10E3/uL
CC[C@@]1(O)C(=O)OCc2c1cc1n(c2=O)Cc2cc3ccccc3nc2-1 = 1170.5 x10E3/uL

Read the next record carefully.
Consider the compound `CC1(C)S[C@@H]2[C@H](NC(=O)[C@H](NC(=O)N3CCNC3=O)c3ccccc3)C(=O)N2[C@H]1C(=O)O` and give its recorded PLATELET COUNT. 1076.5 x10E3/uL

----------
For each record, write down the corresponding ERYTHROCYTE COUNT.
Organism: Rattus norvegicus
Test: DrugMatrix - Regimen: Daily Repeat
Format: toxicity, organism-based, Sprague-Dawley
Parameters: regimen Daily Repeat, gender Male, age 6-8 weeks
Conditions: in vivo, po, 0 mg/kg, 120 h, tissue Blood, route oral GAVAGE, dose level Control, time 5 day, vehicle 100 % WATER
Answers are plain numbers, in x10E6/uL.

Check out these entries, answers already filled in.
CN1CCC[C@H]1c1cccnc1 = 5.54
Cc1cc(NS(=O)(=O)c2ccc(N)cc2)no1 = 5.68

Go through the list and state ERYTHROCYTE COUNT for each entry.
1. Nc1ccc(S(=O)(=O)Nc2ccnn2-c2ccccc2)cc1
2. O=C1NC(=O)C(c2ccccc2)(c2ccccc2)N1
3. Fc1ccc([C@@H]2CCNC[C@H]2COc2ccc3c(c2)OCO3)cc1
4. CN1CCN(C(=O)OC2c3nccnc3C(=O)N2c2ccc(Cl)cn2)CC1 (centres undefined)
5. NNC(=O)c1ccncc1

1: 5.88; 2: 5.53; 3: 5.32; 4: 5.78; 5: 5.76

Go through the list and state ERYTHROCYTE COUNT for each entry.
1. C[C@]12Cc3c[nH]nc3C[C@@H]1CC[C@@H]1[C@@H]2CC[C@@]2(C)[C@H]1CC[C@]2(C)O
2. CC1COc2c(N3CCN(C)CC3)c(F)cc3c(=O)c(C(=O)O)cn1c23 (centres undefined)

1: 5.32; 2: 5.54

Go through the list and state ERYTHROCYTE COUNT for each entry.
1. CC(CCc1ccccc1)NCC(O)c1ccc(O)c(C(N)=O)c1 (centres undefined)
2. NC(=O)c1ncn([C@@H]2O[C@H](CO)[C@@H](O)[C@H]2O)n1
3. COc1ccc(C(CN(C)C)C2(O)CCCCC2)cc1 (centres undefined)

1: 5.78; 2: 5.83; 3: 5.68

Go through the list and state ERYTHROCYTE COUNT for each entry.
1. Clc1ccc(C(c2ccccc2Cl)C(Cl)Cl)cc1 (centres undefined)
2. COc1cccc(C2(O)CCCCC2CN(C)C)c1 (centres undefined)

1: 5.84; 2: 5.32
